test: Cmax in dog at 5 mg/kg, po; format: ADME, organism-based, Canis lupus familiaris; set-up: dose 5 mg/kg, route oral; settings: in vivo
recorded.metric: Cmax (ng/mL)
Numbers only, in ng/mL.

molecule `N#Cc1cccc(-c2c[nH]c3ncnc(N4CCOCC4)c23)c1` , Cmax observed: 15

###

test: Apparent permeability from apical to basolateral side by cell based assay; type: physicochemical; conditions: not told
recorded.metric: Papp A→B (×10⁻⁶ cm/s)
Numbers only, in ×10⁻⁶ cm/s.

molecule `N#Cc1cccc(-c2c[nH]c3ncnc(N4CCOCC4)c23)c1` , Papp A→B observed: 27

###

So I've got a bunch of compounds here, and I need their IC50 values.
biological target: Leucine-rich repeat serine/threonine-protein kinase 2 (Homo sapiens); test: Inhibition of GST-tagged truncated human recombinant LRRK2 using fluorescein-labeled LRRKtide peptide substrate incubated for 2 hrs
Sequence (Q5S007 whole entry, the tested form may be a part): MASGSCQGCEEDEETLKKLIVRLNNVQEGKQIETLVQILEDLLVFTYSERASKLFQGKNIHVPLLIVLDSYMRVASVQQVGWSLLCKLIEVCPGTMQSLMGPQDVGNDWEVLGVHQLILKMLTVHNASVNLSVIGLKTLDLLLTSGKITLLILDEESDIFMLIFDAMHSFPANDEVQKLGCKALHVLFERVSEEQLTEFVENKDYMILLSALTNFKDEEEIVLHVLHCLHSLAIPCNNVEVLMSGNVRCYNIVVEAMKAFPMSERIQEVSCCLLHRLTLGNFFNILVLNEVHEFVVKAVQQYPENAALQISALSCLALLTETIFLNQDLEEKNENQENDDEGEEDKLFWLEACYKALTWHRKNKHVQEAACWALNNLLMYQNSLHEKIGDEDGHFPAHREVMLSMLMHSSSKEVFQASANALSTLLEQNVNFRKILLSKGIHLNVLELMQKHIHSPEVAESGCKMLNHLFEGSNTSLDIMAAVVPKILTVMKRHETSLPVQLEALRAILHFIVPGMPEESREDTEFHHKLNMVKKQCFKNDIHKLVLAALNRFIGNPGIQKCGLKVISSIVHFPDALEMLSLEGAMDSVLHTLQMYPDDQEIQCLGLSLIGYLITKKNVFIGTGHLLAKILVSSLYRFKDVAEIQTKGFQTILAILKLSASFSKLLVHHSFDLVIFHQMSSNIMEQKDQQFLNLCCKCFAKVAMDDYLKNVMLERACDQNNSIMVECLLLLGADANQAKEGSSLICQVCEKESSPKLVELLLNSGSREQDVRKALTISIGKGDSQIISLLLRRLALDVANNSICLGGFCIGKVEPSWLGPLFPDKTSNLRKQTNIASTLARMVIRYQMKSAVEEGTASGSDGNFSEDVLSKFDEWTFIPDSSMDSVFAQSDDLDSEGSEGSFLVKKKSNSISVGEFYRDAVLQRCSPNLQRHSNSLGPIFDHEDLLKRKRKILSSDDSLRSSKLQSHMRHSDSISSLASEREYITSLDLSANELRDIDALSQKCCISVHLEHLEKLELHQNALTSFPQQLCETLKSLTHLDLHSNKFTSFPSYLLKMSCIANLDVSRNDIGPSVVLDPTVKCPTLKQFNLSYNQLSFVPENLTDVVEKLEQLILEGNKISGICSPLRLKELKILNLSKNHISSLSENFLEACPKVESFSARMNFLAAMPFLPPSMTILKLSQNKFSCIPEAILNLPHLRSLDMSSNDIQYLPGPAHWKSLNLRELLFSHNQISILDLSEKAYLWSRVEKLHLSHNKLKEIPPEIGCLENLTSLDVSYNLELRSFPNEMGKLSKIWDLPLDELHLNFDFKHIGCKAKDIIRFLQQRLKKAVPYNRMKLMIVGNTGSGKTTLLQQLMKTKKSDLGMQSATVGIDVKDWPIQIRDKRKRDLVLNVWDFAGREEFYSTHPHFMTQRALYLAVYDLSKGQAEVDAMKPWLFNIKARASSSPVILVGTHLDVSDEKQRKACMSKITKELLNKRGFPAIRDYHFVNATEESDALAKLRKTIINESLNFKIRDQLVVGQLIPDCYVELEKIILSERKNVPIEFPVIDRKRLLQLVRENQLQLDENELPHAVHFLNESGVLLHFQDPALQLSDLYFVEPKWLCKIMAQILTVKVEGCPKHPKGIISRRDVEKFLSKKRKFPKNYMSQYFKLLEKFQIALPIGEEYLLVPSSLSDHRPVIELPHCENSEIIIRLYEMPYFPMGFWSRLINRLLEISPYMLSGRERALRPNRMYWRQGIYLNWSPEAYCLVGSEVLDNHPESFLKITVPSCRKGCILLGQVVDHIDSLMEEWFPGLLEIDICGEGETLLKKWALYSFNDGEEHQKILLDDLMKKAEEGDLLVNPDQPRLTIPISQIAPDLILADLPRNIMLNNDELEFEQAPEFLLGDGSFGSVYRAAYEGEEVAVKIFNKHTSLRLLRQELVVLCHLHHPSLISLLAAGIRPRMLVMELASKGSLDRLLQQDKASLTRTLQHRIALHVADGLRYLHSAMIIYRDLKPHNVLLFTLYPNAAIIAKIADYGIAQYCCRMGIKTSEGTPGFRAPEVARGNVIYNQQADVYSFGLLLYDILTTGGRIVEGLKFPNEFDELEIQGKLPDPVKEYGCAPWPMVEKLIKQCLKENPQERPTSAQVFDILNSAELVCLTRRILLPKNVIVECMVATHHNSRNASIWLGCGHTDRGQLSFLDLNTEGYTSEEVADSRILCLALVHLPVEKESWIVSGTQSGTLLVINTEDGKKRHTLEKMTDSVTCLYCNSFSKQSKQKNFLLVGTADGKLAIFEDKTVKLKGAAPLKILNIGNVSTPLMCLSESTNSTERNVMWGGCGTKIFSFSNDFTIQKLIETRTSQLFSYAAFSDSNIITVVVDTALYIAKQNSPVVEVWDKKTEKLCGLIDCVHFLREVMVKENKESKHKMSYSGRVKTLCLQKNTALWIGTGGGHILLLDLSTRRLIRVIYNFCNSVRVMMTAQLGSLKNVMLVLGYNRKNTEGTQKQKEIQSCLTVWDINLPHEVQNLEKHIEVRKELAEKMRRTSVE
Quick note: number first, unit second.

c1cnc(-c2c[nH]c3ncnc(N4CCOCC4)c23)cn1; 914 nM
COC1CCN(c2ncnc3[nH]cc(-c4cccc(C#N)c4)c23)CC1; 393 nM
N#Cc1cccc(-c2c[nH]c3ncnc(N4CC5(COC5)C4)c23)c1; 2330 nM

State the recorded IC50 for every item in the following list.
1. N#Cc1cccc(-c2c[nH]c3ncnc(N4CC5COCC5C4)c23)c1 (stereo unspecified)
2. N#Cc1cc(-c2c[nH]c3ncnc(N4CCOCC4)c23)ccn1

Return:
1: 222 nM; 2: 686 nM

Sample `CN1CCN(c2ncnc3[nH]cc(-c4cccc(C#N)c4)c23)CC1` , system: Leucine-rich repeat serine/threonine-protein kinase 2 (Homo sapiens). Its IC50 is 1830 nM
